assayed system: 15-hLO-2 (human epithelial 15-lipoxygenase-2) (Homo sapiens, UniProt O15296)
Sequence (O15296 1-676): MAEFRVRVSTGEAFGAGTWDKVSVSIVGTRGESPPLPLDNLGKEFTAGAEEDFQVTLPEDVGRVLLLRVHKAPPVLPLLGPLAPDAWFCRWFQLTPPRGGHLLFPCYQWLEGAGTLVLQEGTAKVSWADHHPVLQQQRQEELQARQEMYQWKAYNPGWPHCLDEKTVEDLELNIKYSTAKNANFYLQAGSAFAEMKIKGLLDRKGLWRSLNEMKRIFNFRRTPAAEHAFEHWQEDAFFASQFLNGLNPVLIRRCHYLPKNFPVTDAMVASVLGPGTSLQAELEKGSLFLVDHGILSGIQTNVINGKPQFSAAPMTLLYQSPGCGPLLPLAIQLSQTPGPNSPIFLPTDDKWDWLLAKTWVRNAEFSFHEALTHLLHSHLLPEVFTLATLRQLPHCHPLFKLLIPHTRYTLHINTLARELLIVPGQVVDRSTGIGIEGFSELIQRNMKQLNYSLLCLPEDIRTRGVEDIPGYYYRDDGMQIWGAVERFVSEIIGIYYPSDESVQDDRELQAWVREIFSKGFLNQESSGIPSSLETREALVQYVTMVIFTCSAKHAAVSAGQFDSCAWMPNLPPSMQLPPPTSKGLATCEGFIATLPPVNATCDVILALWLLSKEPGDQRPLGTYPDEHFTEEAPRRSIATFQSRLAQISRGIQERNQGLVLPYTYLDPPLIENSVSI
pKd: −log10 of the molar value.

>  <molecule>
CCCCC[C@H](O)/C=C/C=C\CCCCCCCC(=O)O [13-HODE, 13-(S)-hydroxyoctadecadienoic acid]

>  <assayed system>
15-hLO-2 (human epithelial 15-lipoxygenase-2) (Homo sapiens, UniProt O15296)

>  <pKd>
~8.30

$$$$

* * *

assayed system: 15-hLO-2 (human epithelial 15-lipoxygenase-2) (Homo sapiens, UniProt O15296)
pKi: −log10 of the molar value.

>  <mol smiles>
CCCCC/C=C\C/C=C\CCCCCCCC(=O)O

>  <pKi>
4.77

$$$$
